Test system: ATP;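 further: ATP exposure 15 min at 22 °C before imaging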
Experiment: switch fluorescence ratio, 500 uM ATP over buffer (Cy3 cluster intensity, sum of 5 cycles each) (fold (ratio)); higher = stronger signal-on switching upon ATP binding; sequences stand for … in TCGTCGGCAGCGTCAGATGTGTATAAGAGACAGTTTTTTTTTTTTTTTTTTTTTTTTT…TC
Details: aptamer strand: ATP DNA aptamer (quencher-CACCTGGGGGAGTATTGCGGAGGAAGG + anchor), 100 nM annealed; ATP concentration: 500 uM
Reported Metric: switch fluorescence ratio
One number for each entry.

Sample records with switch fluorescence ratio:
{"Polymer Sequence": "AGACAGGTAA", "switch fluorescence ratio": 1.01}
{"Polymer Sequence": "TTTATGGGG", "switch fluorescence ratio": 0.965}
{"Polymer Sequence": "TTTTTTTGCA", "switch fluorescence ratio": 1}

Hello, I would appreciate it if you could give switch fluorescence ratio for each entry below.
1. TTATACATCT
2. TACCGTTTTT

A)
1. 1.04
2. 1.01

# map each sequence to its switch fluorescence ratio
1. GAGGGGCAGG
2. TTTGGGGCGA
3. CACCTTACTT
4. TAGGGCACCC
5. TATTGTGCTT
6. GCTATTTGCG

A)
1. 1.02
2. 1.02
3. 1.26
4. 0.988
5. 0.982
6. 1

List reported switch fluorescence ratio for each of these sequences:
1. CGTAAGGGGG
2. ATTTTGTGTG
3. TGGGTTTCTG
4. CCGGACCAGA

A)
1. 1.02
2. 0.989
3. 1.02
4. 1.15
